target: T1, Processed stabilized hMPV PreF trimer (115BV) (human metapneumovirus, strain B2); assay: BLI, mAb on anti-human Fc sensor
T1 construct: also called Processed hMPV PreF trimer; processed PreF
In this section we review reported Octet binding response values for a set of binders.

binder	unit_string	Octet binding response
M3A08 (antibody, V domains shown, IgG) VH: EVQLVESGGGLVKPGGSLRLSCAASGFSITSYGMHWVRQAPGKGLEWVSSISSSSSYISYRDSVKGRFTVSRDNAGNSLSLQMNSLRGEDTAVYHCARDAGLVPPWMDSWGQGTLVIVSS VL: QSVLTQPPSVSGAAGQRVTISCTGSSSNLGTGYDVHWYRQQPGTAPKLIMFGNTNRPSGVPGRFSGSRSGTSASLAITGLQADDEADYYCQSYDSSLGGLVFGGGTKLTVL	nm	0.249
M3E10 (antibody, V domains shown, IgG) VH: QVQLVQSGAEVKKPGSSVKVSCKASGGTINSYAISWVRQAPGQGPEWLGGIIPIFGTANYAQNFPGRVTITADASTSTVYMELSSLRSDDTAIYYCARGTRYIAVMVPSMQDYYFFGMDVWGQGTTVTVSS VL: DIQLTQSPSFLSASVGDRVTITCRASQGISSYLAWYQQKPGQAPKLLIYAASTLQSGVPSRFSGSGSGTEFTLTISSLQPEDFATYYCQQVTSYPFSITFGQGTRLEIK	nm	0.17
M2D08 (antibody, V domains shown, IgG) VH: QVQLVESGGGVVQPGRSLRLSCAASGFVFRFSGMHWIRQAPGKGLQWVAHISDDGSQKYYADSVTGRFAISRDNSRNTLFLEMTGLRGDDTAVYYCARGDYGVSYFLAHWGLGELVIVSS VL: EIVLTQSPATLSLSPGERATLSCRASQNIYNYLAWYQQKPGQAPRLVIYDASNRATGIPARFSGSGSETDFTLTISSLEPEDFAVYYCQQRSDWTFGQGTKLEIK	nm	0.182
